Values compiled from patent US10065990B2.

# System: HT1080 (human fibrosarcoma cells)
# experiment-description: MTT cancer cell growth inhibition
# Type: cell-based
# test-parameters: Homo sapiens, HT-1080, 72 h, MTT, 72 hours; present invention; read-out: GI50 HT1080, a
measured-quantity: GI50 (nM)

Here's what some known entries look like.
C/C=C1\NC(=O)c2cccc(n2)CNC(=O)C[C@@H](/C=C/CCSC(=O)CCCCCCC)OC(=O)[C@H](Cc2ccccc2)NC1=O [Compound 14] :: 300
C/C=C1\NC(=O)c2cccc(n2)CNC(=O)C[C@@H](/C=C/CCSC(C)=O)OC(=O)[C@H](C(C)C)NC1=O [Compound 7] :: 27

[P] C/C=C1\NC(=O)c2nc(ccc2C)CNC(=O)C[C@@H](/C=C/CCSC(=O)CCCCCCC)OC(=O)[C@H](C(C)C)NC1=O [Compound 243]
[Q] CCCCCCCC(=O)SCC/C=C/[C@@H]1CC(=O)NCc2cccc(n2)C(=O)NCC(=O)N[C@@H](C(C)C)C(=O)O1 [Compound 246]
Challenge: Task for the reader: decide whether P or Q has the larger GI50. Write the label of whichever entry you select.
Response given: P
(P: 840 nM, Q: 17 nM)

* * *

# Test system: HCC827 (human non-small cell lung cancer cells)
# experiment-description: MTT cancer cell growth inhibition
# Type: cell-based
# test-parameters: Homo sapiens, HCC827, 72 h, MTT, 72 hours incubation, HCC827 cells; read-out: GI50 HCC827
measured-quantity: GI50 (nM)

Worked examples follow.
C/C=C1\NC(=O)c2cccc(n2)CNC(=O)C[C@@H](/C=C/CCSC(C)=O)OC(=O)[C@H](CCCCN)NC1=O :: 51
C/C=C1\NC(=O)c2cc(SC)cc(n2)CNC(=O)C[C@@H](/C=C/CCSC(C)=O)OC(=O)[C@H](Cc2ccccc2)NC1=O :: 75

[A] C/C=C1\NC(=O)c2nc(ccc2SC)CNC(=O)C[C@@H](/C=C/CCSC(C)=O)OC(=O)[C@H](Cc2cccc3ccccc23)NC1=O
[B] C/C=C1\NC(=O)c2nc(ccc2C)CNC(=O)C[C@@H](/C=C/CCSC(=O)CCCCCCC)OC(=O)[C@H](C(C)C)NC1=O
Challenge: Hey, which is lower on measured GI50, A or B ? Answer with the label corresponding to your selection.
Response given: B

* * *

# Tested on: MCF-7 (human breast cancer cells)
# experiment-description: MTT cancer cell growth inhibition
# Format: cell-based
# test-parameters: MCF-7 cells, 72 hours incubation, read-out: GI50 MCF
measured-quantity: GI50 (nM)

Sample answers from the record:
C/C=C1\NC(=O)c2ccc(SC)c(n2)CNC(=O)C[C@@H](/C=C/CCSC(C)=O)OC(=O)[C@H](C)NC1=O [Compound 215] :: 30
C/C=C1\NC(=O)c2cc(SC)cc(n2)CNC(=O)C[C@@H](/C=C/CCSC(C)=O)OC(=O)[C@H](C)NC1=O [Compound 214] :: 50

[1] C/C=C1\NC(=O)c2nc(ccc2SC)CNC(=O)C[C@@H](/C=C/CCSC(C)=O)OC(=O)[C@H](C)NC1=O [Compound 183]
[2] C/C=C1\NC(=O)c2nc(ccc2SC)CNC(=O)C[C@@H](/C=C/CCSC(C)=O)OC(=O)[C@H](C)NC1=O [Compound 213]
Challenge: Compare 1 and 2 and name the one whose reported GI50 is smaller. // output: label of the selected item
Response given: 1
(1: 40 nM, 2: 90 nM)
